subjectOfTest: HNF4alpha8 (COS-7 nuclear extract) (Homo sapiens, UniProt P41235-5 1-452)
Sequence: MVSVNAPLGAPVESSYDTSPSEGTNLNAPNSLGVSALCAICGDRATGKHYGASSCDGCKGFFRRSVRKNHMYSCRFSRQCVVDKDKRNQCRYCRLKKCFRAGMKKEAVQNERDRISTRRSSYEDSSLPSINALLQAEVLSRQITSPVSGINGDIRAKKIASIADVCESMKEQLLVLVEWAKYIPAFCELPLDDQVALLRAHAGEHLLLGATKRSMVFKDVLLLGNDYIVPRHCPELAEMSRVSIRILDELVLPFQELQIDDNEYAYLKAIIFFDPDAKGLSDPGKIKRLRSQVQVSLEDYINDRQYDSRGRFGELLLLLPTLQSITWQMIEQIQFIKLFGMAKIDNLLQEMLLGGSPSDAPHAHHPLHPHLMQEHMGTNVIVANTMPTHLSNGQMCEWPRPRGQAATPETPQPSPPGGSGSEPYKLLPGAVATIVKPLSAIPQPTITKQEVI
assayText: protein-binding microarray; COS-7 nuclear extract on double-stranded Agilent 4x180k PBM; binding buffer, salt, pH and temperature not given in the material; high values mean tight binding
measurementContext: chain copies: 2; label: 3' end of strand 1 on the slide; dsDNA, one strand shown
Whole data set: some 18,000 sequences, median “log2 normalized intensity” near 0.36, cut for the highest 2% near 7.3. For the sample, the highest values were picked, then their nearest neighbours and some sequences at random.
// boundary case: binding signal equal to 7 log2 normalized intensity maps to NO; strictly smaller maps to YES

# biosequence, category
measured = [
    ("AAGTGACCCTGGTCTTTGCCCTTTCCTAGAGCCTAGGGAGATTAGAGTATCGGTCGA", "YES"),
    ("AGGGAATTTCTAGGTTTGATCTTTGCCCTAGCCTAGGGAGATTAGAGTATCGGTCGA", "NO"),
    ("GGGTATGAATTTAACCTTTGCTCTCTGAAAGCCTAGGGAGATTAGAGTATCGGTCGA", "YES"),
    ("TCCTCAGGGAATTTCTAGGTTTGATCTTTGGCCTAGGGAGATTAGAGTATCGGTCGA", "YES"),
    ("CTCAGTCATACCACATGGATGGATTCAGATGCCTAGGGAGATTAGAGTATCGGTCGA", "YES"),
    ("GGTGAACTTTGAGACTATCCTTGGACCGCAGCCTAGGGAGATTAGAGTATCGGTCGA", "YES"),
    ("GATTTTCAGGTTCCCCAGTGAGGATGTGTGGCCTAGGGAGATTAGAGTATCGGTCGA", "YES"),
    ("TCTCTGGCTTGATCCCTGAACTTTGCTCCCGCCTAGGGAGATTAGAGTATCGGTCGA", "NO"),
    ("GAGAAGTGAACTTTGCCCTCTCTTTCTGGAGCCTAGGGAGATTAGAGTATCGGTCGA", "NO"),
    ("GTGAACTTTGCCCTCTCTTTCTGGAACCTAGCCTAGGGAGATTAGAGTATCGGTCGA", "YES"),
    ("TCCTGCCTTGGAGAAGTGAACTTTGCCCTCGCCTAGGGAGATTAGAGTATCGGTCGA", "NO"),
    ("ACAGGAGATCAGATGGGGTGAACTTTGGACGCCTAGGGAGATTAGAGTATCGGTCGA", "NO"),
    ("ACCCACCCACCTATGTCCTTATCCTCATTGGCCTAGGGAGATTAGAGTATCGGTCGA", "YES"),
    ("TGACCTTTGCATTCTTACCCAAGCCCCAAAGCCTAGGGAGATTAGAGTATCGGTCGA", "YES"),
    ("ACTTTGCCCTTTTTTTCTCTCCCCTTTTAAGCCTAGGGAGATTAGAGTATCGGTCGA", "YES"),
    ("TGGGGTATCAGGTGGTGATGGTGGGAGGGAGCCTAGGGAGATTAGAGTATCGGTCGA", "YES"),
    ("AGCTGACGCCCCACCCCCTCCACCCCTGCCGCCTAGGGAGATTAGAGTATCGGTCGA", "YES"),
    ("CCATCCTACAGGGTATGAATTTAACCTTTGGCCTAGGGAGATTAGAGTATCGGTCGA", "YES"),
]

* * *

subjectOfTest: HNF4alpha8 (COS-7 nuclear extract) (Homo sapiens, UniProt P41235-5 1-452)
Sequence: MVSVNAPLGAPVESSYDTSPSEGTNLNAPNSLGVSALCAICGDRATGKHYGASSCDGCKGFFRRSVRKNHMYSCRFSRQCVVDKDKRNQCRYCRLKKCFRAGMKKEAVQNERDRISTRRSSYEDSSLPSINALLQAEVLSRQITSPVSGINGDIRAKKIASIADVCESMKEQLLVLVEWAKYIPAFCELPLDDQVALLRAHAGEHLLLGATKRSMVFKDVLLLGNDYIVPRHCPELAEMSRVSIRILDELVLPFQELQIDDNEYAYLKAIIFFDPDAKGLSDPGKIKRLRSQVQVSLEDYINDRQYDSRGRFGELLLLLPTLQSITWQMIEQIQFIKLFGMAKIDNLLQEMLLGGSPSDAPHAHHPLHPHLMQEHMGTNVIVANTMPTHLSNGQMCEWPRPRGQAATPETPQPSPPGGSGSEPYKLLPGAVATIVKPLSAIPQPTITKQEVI
assayText: protein-binding microarray; COS-7 nuclear extract on double-stranded Agilent 4x180k PBM; binding buffer, salt, pH and temperature not given in the material; high values mean tight binding
measurementContext: chain copies: 2; label: 3' end of strand 1 on the slide; dsDNA, one strand shown
In all, about 18,000 sequences were measured (“log2 normalized intensity”: median about 0.36, highest 2% from about 7.3 on). Only a selection was taken, and the highest values are over-represented in it overall.

# biosequence, binding signal, log2 normalized intensity
measured = [
    ("TGGCTGGCGGCTAGTGTACAGGTGACCTTTGCCTAGGGAGATTAGAGTATCGGTCGA", 7.84),
    ("GCTAGGTGGCGGGCTGGCTCAGGACAGGTGGCCTAGGGAGATTAGAGTATCGGTCGA", -0.886),
    ("GGTTGGCACGCTTAGGGAACAAAGGTCAGTGCCTAGGGAGATTAGAGTATCGGTCGA", 7.22),
    ("GGAGACCACTGGTGTAAGCTCTGGAGTCCAGCCTAGGGAGATTAGAGTATCGGTCGA", 1.64),
    ("GACCTCATGTAGTCACATACCTATGCAAACGCCTAGGGAGATTAGAGTATCGGTCGA", 1.02),
    ("GTTCTCTGGGCTTTTTGATCTTGTCACATTGCCTAGGGAGATTAGAGTATCGGTCGA", 1.99),
    ("GTCCAAAGGTCAGCAAGCCTGGAGTTCTGAGCCTAGGGAGATTAGAGTATCGGTCGA", 5.05),
    ("GAGGCCAGTTTGACCTTTGCATTCTTACCCGCCTAGGGAGATTAGAGTATCGGTCGA", 7.03),
    ("GAGGAGTGAGAACAGACAAAATTAAGTGATGCCTAGGGAGATTAGAGTATCGGTCGA", -0.842),
    ("GGCGGCTAGTGTACAGGTGACCTTTGGAATGCCTAGGGAGATTAGAGTATCGGTCGA", 9.41),
    ("TGGGAGCAAAGGTCAAGAGTTTTAAAGTATGCCTAGGGAGATTAGAGTATCGGTCGA", 5.47),
    ("AAGTGCGTCCTGTGGCAAAGGTGAATGACCGCCTAGGGAGATTAGAGTATCGGTCGA", 2.99),
    ("AGATAGTGACGGAGGTGACCTTTGGTTGTCGCCTAGGGAGATTAGAGTATCGGTCGA", 6.24),
    ("GTGCTTGGACCTGCTCTGTTTTCTTTCGGTGCCTAGGGAGATTAGAGTATCGGTCGA", 1.24),
    ("CCTAAGCCTTATTATCTGCTTTTATGACCTGCCTAGGGAGATTAGAGTATCGGTCGA", 3.51),
    ("AAAGCTGGCTGGCGGCTAGTGTACAGGTGAGCCTAGGGAGATTAGAGTATCGGTCGA", 0.565),
    ("GCTAGACTTGGACCAGCTTTTGGAAGGACTGCCTAGGGAGATTAGAGTATCGGTCGA", 0.0118),
    ("ATCCACCCATCCAAAGGTCAGCAATCTCAAGCCTAGGGAGATTAGAGTATCGGTCGA", 3.45),
    ("GGATCCTTGGAGGACCTTGGGTTCATTTTAGCCTAGGGAGATTAGAGTATCGGTCGA", 2.86),
    ("AAGCTCTGGAGTCCAAAGGTCAGCAAGCCTGCCTAGGGAGATTAGAGTATCGGTCGA", 8.14),
    ("GAGTACTTGGACTTTAACCTTTAGATTACTGCCTAGGGAGATTAGAGTATCGGTCGA", 7.94),
    ("TTAGGAGGATGACAAAGAGCAAGTGACCCTGCCTAGGGAGATTAGAGTATCGGTCGA", 4.46),
    ("TCACCTACTGACCTTTCTCCCTTTTCACAGGCCTAGGGAGATTAGAGTATCGGTCGA", 3.5),
    ("GGTGTAAGCTCTGGAGTCCAAAGGTCAGCAGCCTAGGGAGATTAGAGTATCGGTCGA", 8.69),
    ("TATCTTTGGAGAATGCCTTTTGTGTAGGAGGCCTAGGGAGATTAGAGTATCGGTCGA", 1.69),
    ("ACTTCTGAGTTTTATCAGCTTCCCTGAGATGCCTAGGGAGATTAGAGTATCGGTCGA", -0.495),
    ("AAGGCTGTCACACTGGCCTTTGCCCTCGCTGCCTAGGGAGATTAGAGTATCGGTCGA", 5.82),
    ("ATATCCCTGAGAGGCCAGTTTGACCTTTGCGCCTAGGGAGATTAGAGTATCGGTCGA", 8.82),
    ("ACTTTAACCTTTAGATTACTAGGAATTGATGCCTAGGGAGATTAGAGTATCGGTCGA", 1.53),
    ("TTGGAGAATGCCTTTTGTGTAGGAGTACACGCCTAGGGAGATTAGAGTATCGGTCGA", 1.46),
    ("CCACTGGTGTAAGCTCTGGAGTCCAAAGGTGCCTAGGGAGATTAGAGTATCGGTCGA", 4.54),
    ("GTCATAATTTGATCCAGTGTGCAAATGTGTGCCTAGGGAGATTAGAGTATCGGTCGA", 2.05),
    ("CTGGAGTCCAAAGGTCAGCAAGCCTGGAGTGCCTAGGGAGATTAGAGTATCGGTCGA", 7.44),
    ("CAGTTTGACCTTTGCATTCTTACCCAAGCCGCCTAGGGAGATTAGAGTATCGGTCGA", 5.1),
    ("AGCTGCCCTTTGCACATGCCCCTCCCAGGGGCCTAGGGAGATTAGAGTATCGGTCGA", 2.81),
    ("CTGTCACACTTGCCCTTTGCCCTCACTGGTGCCTAGGGAGATTAGAGTATCGGTCGA", 7.78),
    ("AAACGCTGAAGTCTCAAAGTTCACCACTTTGCCTAGGGAGATTAGAGTATCGGTCGA", 3.3),
]
